test: Volume of distribution in Sprague-Dawley rat cortex at 2 x 10^-5 mol/kg, iv by LC-MS analysis; assay type: ADME, organism-based; conditions: 2e-05 mol/kg
parameter: Vd (L)
Give bare numbers, in L.

Per the records, this molecule ( COc1cc(O)cc2oc(=O)c(N3CCN(C)CC3)c(C)c12 ) has Vd equal to 12.3

====

assay: Tmax in Sprague-Dawley rat plasma at 2 x 10^-5 mol/kg, iv by LC-MS analysis; assay type: ADME, organism-based; details: 2e-05 mol/kg
parameter: Tmax (min)
One number for each entry, in min.

Tmax reading for COc1cc(O)cc2oc(=O)c(N3CCN(C)CC3)c(C)c12 : 2

====

assay: Volume of distribution in Sprague-Dawley rat plasma at 2 x 10^-5 mol/kg, iv by LC-MS analysis; assay type: ADME, organism-based; conditions: 2e-05 mol/kg
parameter: Vd (L)
Numbers only, in L.

So, COc1cc(O)cc2oc(=O)c(N3CCN(C)CC3)c(C)c12 ? Its Vd was 0.084

====

Task for the reader: assign each of the following molecules its reported viability at 10 µM.
experiment: Cytotoxicity against rat PC12 cells assessed as cell proliferation at 10 uM by MTT assay relative to control; format: cell-based, PC-12; details: read-out: Activity
Numbers only, in %.

Reference set (3 entries):
Cc1c(N2CCN(S(=O)(=O)c3ccccc3)CC2)c(=O)oc2cc(O)cc(O)c12 : 97.4
COc1ccc2c(C)c(N3CCN(C)CC3)c(=O)oc2c1 : 100
Cc1c(N2CCN(Cc3ccccc3)CC2)c(=O)oc2cc(O)cc(O)c12 : 100

Could you tell me viability at 10 µM for each of these molecules? They are listed below.
1. Cc1c(N2CCN(C)CC2)c(=O)oc2cc(OCCN3CCCCC3)ccc12
2. Cc1c(N2CCN(Cc3cc4c(cc3Cl)OCO4)CC2)c(=O)oc2cc(O)cc(O)c12
3. Cc1c(N2CCNCC2)c(=O)oc2cc(O)cc(O)c12

1: 95.4; 2: 97.2; 3: 96.3

====

assay: Terminal half life in Sprague-Dawley rat plasma at 2 x 10^-5 mol/kg, iv by LC-MS analysis; type: ADME, organism-based; conditions: 2e-05 mol/kg, read-out: beta t1/2
parameter: half-life (min)
One number for each entry, in min.

According to the records, this compound COc1cc(O)cc2oc(=O)c(N3CCN(C)CC3)c(C)c12 displays half-life of 6.51

====

assay: Tmax in Sprague-Dawley rat cortex at 2 x 10^-5 mol/kg, iv by LC-MS analysis; format: ADME, organism-based; conditions: 2e-05 mol/kg
parameter: Tmax (min)
Numbers only, in min.

COc1cc(O)cc2oc(=O)c(N3CCN(C)CC3)c(C)c12 yielded Tmax of 2

====

assay: Cmax in Sprague-Dawley rat cortex at 2 x 10^-5 mol/kg, iv measured at 2 mins by LC-MS analysis; assay type: ADME, organism-based; conditions: 2e-05 mol/kg
parameter: Cmax

Data point: COc1cc(O)cc2oc(=O)c(N3CCN(C)CC3)c(C)c12 ; Cmax = 122 ng/mL

====

Exercise: for every item that follows, state its recorded viability at 10 µM.
experiment: Cytotoxicity against rat PC12 cells assessed as cell proliferation at 10 uM by MTT assay relative to control; assay type: cell-based, PC-12; details: read-out: Activity
Param answer (str): number followed by unit.

Sample records with viability at 10 µM:
CCOc1cc(O)cc2oc(=O)c(N3CCN(C)CC3)c(C)c12 : 167%
Cc1c(N2CCN(C)CC2)c(=O)oc2cc(O)cc(OC3CCCCC3)c12 : 177%
Cc1c(N2CCN(C)CC2)c(=O)oc2cc(O)cc(O)c12 : 107%

Look at each compound and report its viability at 10 µM.
1. Cc1c(N2CCN(C)CC2)c(=O)oc2cc(O)cc(OC3CCCC3)c12
2. Cc1c(N2CCN(C)CC2)c(=O)oc2cc(O)cc(OCCCNC(=O)OC(C)(C)C)c12
3. Cc1c(N2CCN(C)CC2)c(=O)oc2cc(OCCN3CCOCC3)ccc12
4. Cc1c(N2CCN(C)CC2)c(=O)oc2cc(O)cc(OCCCN)c12
5. Cc1c(N2CCN(C)CC2)c(=O)oc2cc(O)cc(OC(C)C)c12
6. Cc1c(N2CCN(C(=O)C(F)(F)F)CC2)c(=O)oc2cc(O)cc(O)c12
7. Cc1c(N2CCN(C)CC2)c(=O)oc2cc(O)cc(OCc3nccs3)c12

1. 181%
2. 153%
3. 101%
4. 107%
5. 119%
6. 97.4%
7. 108%

// field: viability at 10 µM; key: Cc1c(N2CCN(C)CC2)c(=O)oc2cc(O)cc(OCCCCl)c12 ; value = 197%

====

Would you kindly list viability at 10 µM for each of these molecules?
test: Cytotoxicity against rat PC12 cells assessed as cell proliferation at 10 uM by MTT assay relative to control; format: cell-based, PC-12; conditions: read-out: Activity
Give bare numbers, in %.

Cc1c(N2CCN(C)CC2)c(=O)oc2cc(O)cc(OCCc3ccccn3)c12 : 152
C=CC(=O)N1CCN(c2c(C)c3c(O)cc(O)cc3oc2=O)CC1 : 98.5

Item: COc1ccc(COc2ccc3c(C)c(N4CCN(C)CC4)c(=O)oc3c2)cc1 | viability at 10 µM: 136

====

Exercise: state measured viability at 10 µM for each of the compounds provided.
assay: Cytotoxicity against rat PC12 cells assessed as cell proliferation at 10 uM by MTT assay relative to control; type: cell-based, PC-12; details: read-out: Activity
Give bare numbers, in %.

CCC1CCC(Oc2ccc3c(C)c(N4CCN(C)CC4)c(=O)oc3c2)CC1 (stereo unspecified) : 101
CCCCOc1cc(O)cc2oc(=O)c(N3CCN(C)CC3)c(C)c12 : 197
Cc1cc(O)c2c(C)c(N3CCN(C)CC3)c(=O)oc2c1 : 99.5
CCCCCCCNC(=O)N1CCN(c2c(C)c3c(O)cc(O)cc3oc2=O)CC1 : 99.3

Would you mind giving viability at 10 µM for every compound in the list below?
1. COc1cc(O)cc2oc(=O)c(N3CCN(C)CC3)c(C)c12
2. Cc1c(N2CCN(C)CC2)c(=O)oc2cc(O)cc(OCC3CC3)c12
3. Cc1c(N2CCN(C)CC2)c(=O)oc2cc(O)cc(OCCN)c12
4. Cc1c(CC(=O)N2CCN(C)CC2)c(=O)oc2cc(O)cc(O)c12
5. Cc1c(N2CCN(C)CC2)c(=O)oc2cc(O)cc(OCCN(C)C)c12

1. 101
2. 184
3. 104
4. 97.7
5. 104

Batch lookup, viability at 10 µM per entry.
1. CCOc1ccc2c(C)c(N3CCN(C)CC3)c(=O)oc2c1
2. Cc1c(N2CCN(C(c3ccc(F)cc3)c3ccc(F)cc3)CC2)c(=O)oc2cc(O)cc(O)c12

[101, 102]

====

test: Cytotoxicity against rat PC12 cells assessed as cell proliferation at 10 uM by MTT assay relative to control; type: cell-based, PC-12; conditions: read-out: Activity
parameter: viability at 10 µM (%)
Answers are plain numbers, in %.

Cc1c(N2CCN(C(=O)CCl)CC2)c(=O)oc2cc(O)cc(O)c12 : 97.4
COc1ccccc1N1CCN(c2c(C)c3c(O)cc(O)cc3oc2=O)CC1 : 102
Cc1c(N2CCN(C)CC2)c(=O)oc2cc(O)cc(OCCN3CCOCC3)c12 : 108
Cc1c(N2CCN(C)CC2)c(=O)oc2cc(OCCN3CCCC3)ccc12 : 104
Cc1c(N2CCN(C)CC2)c(=O)oc2cc(OCCc3cccs3)ccc12 : 110

For the 3 molecules below, give their viability at 10 µM values.
1. COc1cc(O)c2c(C)c(N3CCN(C)CC3)c(=O)oc2c1
2. Cc1c(N2CCN(C)CC2)c(=O)oc2cc(O)cc(OC3CCN(C)CC3)c12
3. Cc1c(N2CCN(C)CC2)c(=O)oc2cc(O)cc(OCCc3cccs3)c12

1: 99.8; 2: 139; 3: 178

====

assay: Cytotoxicity against rat PC12 cells assessed as cell proliferation at 10 uM by MTT assay relative to control; type: cell-based, PC-12; settings: read-out: Activity
parameter: viability at 10 µM (%)
Give bare numbers, in %.

Solved entries (count: 6):
CCCCNC(=S)N1CCN(c2c(C)c3c(O)cc(O)cc3oc2=O)CC1 : 103
CCN1CCN(c2c(C)c3c(O)cc(O)cc3oc2=O)CC1 : 101
Cc1c(N2CCN(C)CC2)c(=O)oc2cc(O)ccc12 : 99
Cc1c(N2CCN(C(=O)NCc3ccccc3)CC2)c(=O)oc2cc(O)cc(O)c12 : 102
Cc1c(N2CCN(C)CC2)c(=O)oc2cc3c(cc12)OCO3 : 101
Cc1c(N2CCN(C(=O)Nc3ccccc3Oc3ccccc3)CC2)c(=O)oc2cc(O)cc(O)c12 : 97.9

Please go through the list and note viability at 10 µM for each compound.
1. CCCCCCCCOc1cc(O)cc2oc(=O)c(N3CCN(C)CC3)c(C)c12
2. Cc1c(N2CCN(C(=O)Nc3ccc(C(C)C)cc3)CC2)c(=O)oc2cc(O)cc(O)c12
3. CC(=O)N1CCN(c2c(C)c3c(O)cc(O)cc3oc2=O)CC1

[59.4, 97.3, 98.1]

State the recorded viability at 10 µM for every item in the following list.
1. Cc1c(CCN2CCN(C)CC2)c(=O)oc2cc(O)cc(O)c12
2. Cc1c(N2CCN(c3ccc(F)cc3)CC2)c(=O)oc2cc(O)cc(O)c12
3. Cc1cccc(N2CCN(c3c(C)c4c(O)cc(O)cc4oc3=O)CC2)c1C

102
103
103
